The measurements presented in this section are drawn from patent US20180362632A1.

SYSTEM_NAME: recombinant human GM-CSF protein (human, UniProt P04141 18-144)
Sequence (P04141 18-144): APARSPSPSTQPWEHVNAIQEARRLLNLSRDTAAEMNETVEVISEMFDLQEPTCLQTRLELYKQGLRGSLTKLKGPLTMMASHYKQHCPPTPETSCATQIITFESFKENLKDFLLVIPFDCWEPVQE
ASSAY_NAME: ELISA
Listing of entries alongside the reported EC50.
Provide only the numeric value, understood in nM.

Consider the worked cases shown below.
{"BINDER": "Hu23F4-36 (antibody, V domains shown) VH: EVQLVQSGAEVKKPGASVKVSCKASDYTLTSHYLHWVRQAPGQGLEWIGWIFPGDDKTKYNEKFKGRATLTSDTSISTAYMELSRLRSDDTAVYYCARGTKYLNWNFDVWGQGTTVTVSS VL: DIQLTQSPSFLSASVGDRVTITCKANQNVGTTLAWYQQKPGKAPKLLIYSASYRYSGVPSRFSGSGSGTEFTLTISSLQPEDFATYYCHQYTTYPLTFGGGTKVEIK", "PROPERTY_MEASURED": "EC50", "READOUT_VALUE": 0.0384}
{"BINDER": "Hu23F4-23 (antibody, V domains shown) VH: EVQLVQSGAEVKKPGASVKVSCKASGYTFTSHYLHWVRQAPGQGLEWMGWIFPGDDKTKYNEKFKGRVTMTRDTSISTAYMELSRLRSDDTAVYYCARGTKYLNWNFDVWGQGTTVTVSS VL: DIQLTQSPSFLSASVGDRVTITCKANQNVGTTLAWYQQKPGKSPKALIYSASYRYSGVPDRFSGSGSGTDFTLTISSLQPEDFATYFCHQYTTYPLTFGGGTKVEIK", "PROPERTY_MEASURED": "EC50", "READOUT_VALUE": 0.047}

EC50 in this record for Hu23F4-25 (antibody, V domains shown) VH: EVQLVQSGAEVKKPGASVKVSCKASGYTFTSHYLHWVRQAPGQGLEWMGWIFPGDDKTKYNEKFKGRVTMTSDTSISTAYMELSRLRSDDTAVYYCARGTKYLNWNFDVWGQGTTVTVSS VL: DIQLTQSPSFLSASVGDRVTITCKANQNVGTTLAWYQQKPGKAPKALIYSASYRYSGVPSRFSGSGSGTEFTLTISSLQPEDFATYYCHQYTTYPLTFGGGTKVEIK : 0.0268
